Measured inhibition, listed per entry.
- target: Gag-Pol polyprotein (Human immunodeficiency virus type 1 group M subtype B (isolate HXB2)) (UniProt P04585)
- measurement protocol: RNase H inhibition, HIV 1 Gag Pol polyprotein, FRET biochemical assay, screening (AID 372)
- particulars: HIV-1 RT RNase H, FRET RNA/DNA substrate fluorescence; at 10 µM; active compounds read high
Among all 100,000 compounds or so, about 770 (0.77%) were called active. The sample holds actives, similar compounds and a random draw of the others, so the mix is not that of the screen.
measured endpoint: inhibition (%)

> print(dat)
                                    molecule  measured.endpoint  value.observed
 1  O=C(O)c1ccc(-c2ccc(/C=C3/SC(=O)N(c4ccccc4)C3=O)o2)cc1         inhibition              15
 2  CC1=C(C(=O)OC(C)C)C(c2cccc(F)c2)C2=C(CCCC2=O)N1 (stereo unspecified)         inhibition               4
 3  COC(=O)c1ccc(-c2ccc(/C=C3\SC(=O)N(c4ccccc4)C3=O)o2)cc1         inhibition              57
 4        CCN(CC)c1ccc(C(NC(C)=O)NC(C)=O)cc1         inhibition               0
 5  O=C(/C=C/c1ccc(-c2cc(Cl)cc(Cl)c2)o1)c1ccccc1         inhibition              51
 6  CC1=NN(c2nc(-c3ccc(F)cc3)cs2)C(=O)/C1=C\c1ccc(O)cc1         inhibition              45
 7  CC1=NN(c2nc(-c3ccc(Cl)cc3)cs2)C(=O)/C1=C\c1ccc2c(c1)OCO2         inhibition              57
 8   O=C(NCCSc1ccccn1)c1ccc([N+](=O)[O-])cc1         inhibition               0
 9  O=C(/C=C\c1ccc(-c2cc(Cl)ccc2Cl)o1)c1ccccc1         inhibition              40
10       CC(=O)/C=C/c1ccc(-c2cc(Cl)ccc2Cl)o1         inhibition              54
11  O=C(/C=C/c1ccc(-c2cc(Cl)ccc2Cl)o1)c1ccc(F)cc1         inhibition              52
12   C(=N/Nc1nc2ccccc2o1)/c1ccc(N2CCOCC2)cc1         inhibition              20
13  COC(=O)c1ccc(-c2ccc(/C=C3/SC(=S)N(c4ccccc4)C3=O)o2)cc1         inhibition               4
14  O=C(/C=C/c1ccc(-c2ccc(Cl)cc2)o1)c1ccccc1         inhibition              20
15  O=C(COc1ccccc1[N+](=O)[O-])Nc1ccc2oc(-c3cc(Br)ccc3Cl)nc2c1         inhibition              49
16  O=C(N1CCN(c2c(F)c(F)c(C(F)(F)F)c(F)c2F)CC1)C12CC3CC(CC(C3)C1)C2         inhibition               7
17  Cc1ccc(C(=O)c2cccc(C(=O)c3ccc(C)c(C)c3)c2)cc1C         inhibition               8
18  COc1cc(/C=C2\C(=O)N(c3nc(-c4ccc(Cl)cc4)cs3)N=C2C)cc(OC)c1OC         inhibition              45
19  COc1ccc(C(=O)Nc2ccc(Cc3ccc(NC(=O)c4ccc(OC)cc4)cc3)cc2)cc1         inhibition              52
20          CCc1cc2c(=O)n(N)c(CCC(=O)O)nc2s1         inhibition               6
21  O=C(O)c1cccc([N+](=O)[O-])c1C(=O)Nc1cccc(Cl)c1         inhibition               7
